- experimental target: HumRADA2 (Pyrococcus furiosus, UniProt O74036, D220A/DEL288-314/E219S/I169M/K221M/V202Y/Y201A)
- test details: Isothermal titration calorimetry (ITC), direct binding to HumRADA2
- measurement context: tryptophan ester series (Table 1)
Can you tell me LE (ligand efficiency) for the items I'm about to list?
All answers are understood in kcal mol−1 per heavy atom, so give the number only.

Problem: # query: LE (ligand efficiency) of entry O=C(NC(Cc1c[nH]c2ccccc12)C(=O)OCCc1ccccc1)c1ccccc1 (stereo not drawn)
Result: 0.24

Problem: What measured LE (ligand efficiency) goes with Cl.N[C@@H](Cc1c[nH]c2ccccc12)C(=O)OCCc1c[nH]c2ccccc12 ?
Result: 0.23

Problem: Returns the measured LE (ligand efficiency) for the input molecule. Input: CNC(=O)C(Cc1c[nH]c2ccccc12)NC(C)=O (stereo not drawn)
Result: 0.22

---

- experimental target: HumRADA2 (Pyrococcus furiosus, UniProt O74036, D220A/DEL288-314/E219S/I169M/K221M/V202Y/Y201A)
- test details: Isothermal titration calorimetry (ITC), direct binding to HumRADA2
I'd be grateful if you could share measured pKd for these entries.
Here pKd is given on a logarithmic scale as minus log10 of the concentration in mol/L.

Problem: Consider the molecule Cl.N[C@@H](Cc1c[nH]c2ccccc12)C(=O)OCCc1ccccc1F and give its measured pKd.
Result: 4.60

Problem: So what does the record say about pKd for Nc1cccc(S(=O)(=O)NCCc2c[nH]c3ccccc23)c1 ?
Result: 4.51

Problem: Record request: pKd value, item Cl.N[C@@H](Cc1c[nH]c2ccccc12)C(=O)OCCc1ccccc1
Result: 4.46

Problem: May I ask what pKd has been recorded for CNC(=O)C(N)Cc1c[nH]c2ccccc12 (stereo not drawn) ?
Result: 2.82

Problem: Look at this molecule and give its reported pKd. O=S(=O)(NCCc1c[nH]c2ccccc12)c1ccccc1
Result: 4.55

Problem: Dear colleague, I am looking for the recorded pKd of the following molecule: O=S(=O)(NCCc1c[nH]c2ccccc12)c1c(Cl)sc(Cl)c1Br
Result: 5.64

Problem: Please give the measured pKd for this molecule: Cc1ccc(CCOC(=O)C(N)Cc2c[nH]c3ccccc23)cc1 (stereo not drawn)
Result: 4.66

Problem: What pKd value was documented for this molecule, O=S(=O)(NCCc1c[nH]c2ccccc12)c1ccc(Cl)s1 ?
Result: 4.89

Problem: pKd for O=S(=O)(NCCc1c[nH]c2ccccc12)c1ccc(Br)s1 ?
Result: 5.00

Problem: I am curious: what pKd value has been reported for Cn1cnc(S(=O)(=O)NCCc2c[nH]c3ccccc23)c1 ?
Result: 3.38

Problem: I would be grateful if you could share the reported pKd for O=S(=O)(NCCc1c[nH]c2ccccc12)c1ccc(Br)cc1 .
Result: 4.04

Problem: Param item = CC(=O)N[C@@H](Cc1c[nH]c2ccccc12)C(=O)OCCc1ccccc1F ; retrieve measured pKd.
Result: 4.74

Problem: Please report the recorded pKd for Cl.N[C@@H](Cc1c[nH]c2ccccc12)C(=O)OCc1ccccc1 .
Result: 3.70
